Assign pIC50 to each entry below.
test name: Inhibition of equine liver glutathione S-transferase using GSH and CDNB as substrate preincubated for 2 mins followed by substrate addition and measured upto 6 mins in the presence of UV irradiation by spectrophotometric analysis
Design: species or system Equus caballus
One number for each entry, as −log10 of the molar value.

Some compounds with recorded pIC50:
Ask: Please indicate pIC50 recorded for CCCCCCCCOc1c2cccc1Cc1cc(C(=O)P(=O)(O)O)cc(c1O)Cc1cccc(c1OCCCCCCCC)Cc1cc(C(=O)P(=O)(O)O)cc(c1O)C2
Result: 5.98

Ask: Please indicate pIC50 recorded for CCCCOc1c2cccc1Cc1cc(C(=O)P(=O)(O)O)cc(c1O)Cc1cccc(c1OCCCC)Cc1cc(C(=O)P(=O)(O)O)cc(c1O)C2
Result: 6.03

Ask: Please indicate pIC50 recorded for CCCOc1c2cccc1Cc1cc(C(O)(P(=O)(O)O)P(=O)(O)O)cc(c1O)Cc1cccc(c1OCCC)Cc1cc(C(=O)P(=O)(O)O)cc(c1O)C2
Result: 5.96

---
Ask: Please indicate pIC50 recorded for CCCCCCCCCCCCOc1c2cccc1Cc1cc(C(=O)P(=O)(O)O)cc(c1O)Cc1cccc(c1OCCCCCCCCCCCC)Cc1cc(C(=O)P(=O)(O)O)cc(c1O)C2
Result: 5.88

From: ChEMBL document CHEMBL5150020
